Target: human vasopressin V1a receptor subtype (Homo sapiens, UniProt P37288)
Sequence (P37288 whole entry): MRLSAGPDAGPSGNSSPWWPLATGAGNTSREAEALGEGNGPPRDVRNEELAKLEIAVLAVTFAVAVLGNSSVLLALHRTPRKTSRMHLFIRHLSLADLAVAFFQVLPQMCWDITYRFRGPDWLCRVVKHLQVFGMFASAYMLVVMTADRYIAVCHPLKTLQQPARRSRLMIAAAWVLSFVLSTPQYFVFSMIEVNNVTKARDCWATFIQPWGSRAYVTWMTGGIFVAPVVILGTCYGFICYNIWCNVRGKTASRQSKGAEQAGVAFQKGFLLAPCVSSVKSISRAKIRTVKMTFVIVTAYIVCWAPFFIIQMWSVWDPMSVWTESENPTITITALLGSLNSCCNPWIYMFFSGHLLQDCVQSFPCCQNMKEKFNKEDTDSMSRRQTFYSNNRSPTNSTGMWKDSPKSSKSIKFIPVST
Assay: Vasopressin binding in CHO cell membranes expressing human vasopressin V1a subtype receptors
Conditions: 100 nM, [3H]Manning ligand
Description: Vasopressin Binding in Chinese Hamster Ovary Cell Membranes Expressing Human Vasopressin V1a Subtype Receptors Chinese hamster ovary cells (CHO cells) stably transfected with the human vasopressin V1a subtype receptors were either obtained from Biosignal Inc., 1744 rue Williams, Montreal, Quebec, Canada or obtained from M. Thibonnier, Case Western Reserve University School of Medicine, Cleveland, Ohio. […]
measured_metric: inhibition at 0.1 µM (%)
The reply should contain only the number, in %.

CN(C)CCN(C)C(=O)c1ccc2n1Cc1ccccc1N(C(=O)c1ccc(C3CCCCC3)cc1)C2 3
O=C(NNC(=O)c1ccc2n1Cc1ccccc1N(C(=O)c1ccc(C3CCCCC3)cc1)C2)Nc1ccccc1 -4
O=C(NCCc1ccccn1)c1ccc2n1Cc1ccccc1N(C(=O)c1ccc(C3CCCCC3)cc1)C2 0
CN1CCCN(C(=O)c2ccc3n2Cc2ccccc2N(C(=O)c2ccc(C4CCCCC4)cc2)C3)CC1 49
CN(CCc1ccncc1)C(=O)c1ccc2n1Cc1ccccc1N(C(=O)c1ccc(C3CCCCC3)cc1)C2 50

stdin: Quick check: inhibition at 0.1 µM of CN1CCN(C(=O)c2ccc3n2Cc2ccc(C(=O)O)cc2N(C(=O)c2ccc(C4CCCCC4)cc2)C3)CC1 ?
stdout: -19

stdin: Quick check: inhibition at 0.1 µM of O=C(c1ccc2n1Cc1ccccc1N(C(=O)c1ccc(C3CCCCC3)cc1)C2)N1CCN(CCN2CCOCC2)CC1 ?
stdout: 28

====

# melting point values compiled below

stdin: Quick check: melting point of COC(=O)c1ccc2c(c1)N(C(=O)c1ccc(C3CCCCC3)cc1)Cc1ccc(C(=O)N3CCN(C)CC3)n1C2.Cl [Example 1] ?
stdout: 203 °C (dec.)

stdin: Quick check: melting point of CN1CCN(C(=O)c2ccc3n2Cc2ccccc2N(C(=O)c2ccc(C4CCCCC4)cc2)C3)CC1 [Example 24] ?
stdout: 134 to 136 °C

stdin: Quick check: melting point of NC(=O)c1ccc2n1Cc1ccccc1N(C(=O)c1ccc(C3CCCCC3)cc1)C2 [Example 16] ?
stdout: 122 to 123 °C

stdin: Quick check: melting point of CN(C)C=NNC(=O)c1ccc2n1Cc1ccccc1N(C(=O)c1ccc(C3CCCCC3)cc1)C2 [Example 10] ?
stdout: 167 to 190 °C

====

# OT % inhibition at 100 nM values compiled below
Target: human oxytocin receptor (Homo sapiens)
Sequence (P30559 1-389): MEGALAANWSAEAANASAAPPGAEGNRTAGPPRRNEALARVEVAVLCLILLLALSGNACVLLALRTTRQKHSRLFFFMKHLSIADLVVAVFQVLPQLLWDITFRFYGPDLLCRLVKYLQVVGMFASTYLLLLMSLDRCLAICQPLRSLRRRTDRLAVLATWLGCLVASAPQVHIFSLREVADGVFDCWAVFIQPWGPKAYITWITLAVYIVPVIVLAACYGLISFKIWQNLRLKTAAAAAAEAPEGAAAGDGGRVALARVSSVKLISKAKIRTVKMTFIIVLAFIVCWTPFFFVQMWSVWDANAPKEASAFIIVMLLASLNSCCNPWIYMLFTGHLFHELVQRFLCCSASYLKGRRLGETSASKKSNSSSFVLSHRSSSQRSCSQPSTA
Assay: Oxytocin binding in CHO cell membranes expressing human oxytocin receptors
Conditions: 100 nM, [3H]oxytocin
Source text: Oxytocin Binding in Chinese Hamster Ovary Cell Membranes Expressing Human Oxytocin Receptors Chinese Hamster Ovary (CHO) cells stably transfected with the human oxytocin receptor (cf. Tanizawa et al., U.S. Pat. No. 5,466,584 (1995) to Rohto Pharmaceutical Co. Ltd., Osaka, Japan) were obtained from M. Thibonnier, Case Western Reserve University School of Medicine, Cleveland, Ohio. […]
Answer shape: numeric part, then the unit.

Example entries and their recorded answers appear below.
molecule	OT % inhibition at 100 nM
CN(C)[C@@H]1CCN(C(=O)c2ccc3n2Cc2ccccc2N(C(=O)c2ccc(C4CCCCC4)cc2)C3)C1 [Example 47]	82%
Cc1ccccc1C(=O)NNC(=O)c1ccc2n1Cc1ccccc1N(C(=O)c1ccc(C3CCCCC3)cc1)C2 [Example 12]	47%
O=C(c1ccc(C2CCCCC2)cc1)N1Cc2ccc(C(=O)N3CCC[C@H]3CN3CCCC3)n2Cc2ccccc21 [Example 46]	91%
Cc1cccc(C(=O)NNC(=O)c2ccc3n2Cc2ccccc2N(C(=O)c2ccc(C4CCCCC4)cc2)C3)c1 [Example 14]	53%
CN1CCN(C(=O)C(=O)c2ccc3n2Cc2ccccc2N(C(=O)c2ccc(C4CCCCC4)cc2)C3)CC1 [Example 32]	87%

stdin: Tell me reported OT % inhibition at 100 nM for O=C(c1ccc2n1Cc1ccccc1N(C(=O)c1ccc(C3CCCCC3)cc1)C2)N1CCN(c2ccncc2)CC1 [Example 54] , tested with human oxytocin receptor (Homo sapiens).
stdout: 4%

stdin: Tell me reported OT % inhibition at 100 nM for O=C(NNC(=O)C1CC1)c1ccc2n1Cc1ccccc1N(C(=O)c1ccc(C3CCCCC3)cc1)C2 [Example 13] , tested with human oxytocin receptor (Homo sapiens).
stdout: 73%

stdin: Tell me reported OT % inhibition at 100 nM for O=C(O)c1ccc2n1Cc1ccccc1N(C(=O)c1ccc(C3CCCCC3)cc1)C2 [Example 22] , tested with human oxytocin receptor (Homo sapiens).
stdout: 34%

stdin: Tell me reported OT % inhibition at 100 nM for O=C(c1ccc2n1Cc1ccccc1N(C(=O)c1ccc(C3CCCCC3)cc1)C2)N1CCN(CCO)CC1 [Example 48] , tested with human oxytocin receptor (Homo sapiens).
stdout: 78%

stdin: Tell me reported OT % inhibition at 100 nM for O=C(C(=O)N1CCC(N2CCCCC2)CC1)c1ccc2n1Cc1ccccc1N(C(=O)c1ccc(C3CCCCC3)cc1)C2 [Example 31] , tested with human oxytocin receptor (Homo sapiens).
stdout: 89%

====

target: human vasopressin V1a receptor subtype (Homo sapiens, UniProt P37288); test: Vasopressin binding in CHO cell membranes expressing human vasopressin V1a subtype receptors; settings: 100 nM, [3H]Manning ligand
Please use 1 whenever inhibition at 0.1 µM is not below 20%, and 0 whenever it is.

These solved cases illustrate the format of a correct answer.
compound	group_label
CN(N)C(=O)c1ccc2n1Cc1ccccc1N(C(=O)c1ccc(C3CCCCC3)cc1)C2	1
CN1CCC(N(C)C(=O)c2ccc3n2Cc2ccccc2N(C(=O)c2ccc(C4CCCCC4)cc2)C3)C1 (stereo not drawn)	1
CN(C)/C=C/C(=O)c1ccc2n1Cc1ccccc1N(C(=O)c1ccc(C3CCCCC3)cc1)C2	1
CN1CCCC1CCNC(=O)c1ccc2n1Cc1ccccc1N(C(=O)c1ccc(C3CCCCC3)cc1)C2 (stereo not drawn)	1
CN(C)CCCN(C)C(=O)c1ccc2n1Cc1ccccc1N(C(=O)c1ccc(C3CCCCC3)cc1)C2	0
O=C(c1ccc(C2CCCCC2)cc1)N1Cc2ccc(C(=O)n3ccnc3)n2Cc2ccccc21	0

stdin: Hi team, for COc1ccc(NC(=O)c2ccc3n2Cc2ccccc2N(C(=O)c2ccc(C4CCCCC4)cc2)C3)cc1 , is the recorded inhibition at 0.1 µM at or above 20%?
stdout: 0

stdin: Hi team, for CN(Cc1cccnc1)C(=O)c1ccc2n1Cc1ccccc1N(C(=O)c1ccc(C3CCCCC3)cc1)C2 , is the recorded inhibition at 0.1 µM at or above 20%?
stdout: 0

====

# melting point values compiled below

Example entries and their recorded answers appear below.
CN(C)/C=N/C(=O)c1ccc2n1Cc1ccccc1N(C(=O)c1ccc(C3CCCCC3)cc1)C2 216 to 218 °C
CN(C)NC(=O)c1ccc2n1Cc1ccccc1N(C(=O)c1ccc(C3CCCCC3)cc1)C2 182 to 183 °C

Now consider a different compound.
stdin: Quick check: melting point of O=C(c1ccc(C2CCCCC2)cc1)N1Cc2ccc(C(=O)C(Cl)(Cl)Cl)n2Cc2ccccc21 ?
stdout: 172 to 174 °C

====

# V2 % inhibition at 100 nM values compiled below
biological target: human V2 vasopressin receptor subtype (Homo sapiens); assay: Vasopressin binding in CHO cell membranes expressing human vasopressin V2 subtype receptors; details: 100 nM, [3H]arginine vasopressin
Sequence (P30518 whole entry): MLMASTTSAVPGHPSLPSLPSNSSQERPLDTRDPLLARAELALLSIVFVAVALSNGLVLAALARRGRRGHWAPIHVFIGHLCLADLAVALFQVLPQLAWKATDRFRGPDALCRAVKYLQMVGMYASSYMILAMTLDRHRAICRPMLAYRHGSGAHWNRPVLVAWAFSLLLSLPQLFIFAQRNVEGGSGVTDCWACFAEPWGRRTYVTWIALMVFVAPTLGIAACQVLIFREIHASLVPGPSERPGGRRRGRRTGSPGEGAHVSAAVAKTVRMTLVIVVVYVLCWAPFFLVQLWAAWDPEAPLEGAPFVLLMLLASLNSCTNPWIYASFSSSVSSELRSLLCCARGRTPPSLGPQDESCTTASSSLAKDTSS
The reply should contain only the number, in %.

Example entries and their recorded answers appear below.
O=C(NNC(=O)C1CC1)c1ccc2n1Cc1ccccc1N(C(=O)c1ccc(C3CCCCC3)cc1)C2 18
Cc1ccccc1C(=O)NNC(=O)c1ccc2n1Cc1ccccc1N(C(=O)c1ccc(C3CCCCC3)cc1)C2 7
O=C(C(=O)N1CCC(N2CCCCC2)CC1)c1ccc2n1Cc1ccccc1N(C(=O)c1ccc(C3CCCCC3)cc1)C2 2
CN1CCN(C(=O)C(=O)c2ccc3n2Cc2ccccc2N(C(=O)c2ccc(C4CCCCC4)cc2)C3)CC1 6
O=C(c1ccc2n1Cc1ccccc1N(C(=O)c1ccc(C3CCCCC3)cc1)C2)N1CCN(c2ccncc2)CC1 6
O=C(c1ccc(C2CCCCC2)cc1)N1Cc2ccc(C(=O)N3CCC[C@H]3CN3CCCC3)n2Cc2ccccc21 14
O=C(c1ccc2n1Cc1ccccc1N(C(=O)c1ccc(C3CCCCC3)cc1)C2)N1CCN(CCO)CC1 14
O=C(O)c1ccc2n1Cc1ccccc1N(C(=O)c1ccc(C3CCCCC3)cc1)C2 19

stdin: Quick check: V2 % inhibition at 100 nM of Cc1cccc(C(=O)NNC(=O)c2ccc3n2Cc2ccccc2N(C(=O)c2ccc(C4CCCCC4)cc2)C3)c1 ?
stdout: 4

stdin: Quick check: V2 % inhibition at 100 nM of CN(C)[C@@H]1CCN(C(=O)c2ccc3n2Cc2ccccc2N(C(=O)c2ccc(C4CCCCC4)cc2)C3)C1 ?
stdout: 0
